System name: UniProt:Q194T2
Sequence (Q194T2 whole entry): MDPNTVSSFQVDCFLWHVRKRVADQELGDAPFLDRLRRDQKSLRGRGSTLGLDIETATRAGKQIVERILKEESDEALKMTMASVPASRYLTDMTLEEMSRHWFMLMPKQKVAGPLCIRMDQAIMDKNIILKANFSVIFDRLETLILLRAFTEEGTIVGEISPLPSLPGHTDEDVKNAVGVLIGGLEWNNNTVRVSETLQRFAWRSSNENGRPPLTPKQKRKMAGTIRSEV
Assay type: functional, Influenza A virus (A/California/07/2009(H1N1))
Active and inactive are the calls of the source.
Here the recorded IC50 is given for each entry.
Readout: IC50

[[record]]
molecular_string = "Cc1ccc(NCCN(C)C)c2c(=O)c3cc(O)ccc3sc12"
reported = "21.7 µM (active)"

[[record]]
molecular_string = "CCN(CC)CCNc1nc2cc(OC)c(OC)cc2c2nc(-c3ccccc3)nn12"
reported = "> 100 µM (active)"

[[record]]
molecular_string = "Oc1c(CN2CCc3ccccc3C2)cc(Cl)c2cccnc12"
reported = "11.1 µM (active)"

[[record]]
molecular_string = "O=[N+]([O-])c1nn(-c2ccc3c(c2)OCCO3)[n+]([O-])c1NC1CCCCCC1"
reported = "44.6 µM (active)"

[[record]]
molecular_string = "CC(C)(C)c1nnc(N/N=C/c2cc(Br)ccc2O)n(N)c1=O"
reported = "16.6 µM (active)"

[[record]]
molecular_string = "O=[N+]([O-])c1cccc(/C=N/Nc2nc(NCc3ccccc3)nc(N3CCOCC3)n2)c1O"
reported = "6.2 µM (active)"

[[record]]
molecular_string = "Clc1ccc(-c2cnnc(-c3ccccn3)n2)cc1"
reported = "14.2 µM (active)"

